- measurementTarget: Amine oxidase [flavin-containing] B (Rattus norvegicus)
- Sequence (P19643 whole entry): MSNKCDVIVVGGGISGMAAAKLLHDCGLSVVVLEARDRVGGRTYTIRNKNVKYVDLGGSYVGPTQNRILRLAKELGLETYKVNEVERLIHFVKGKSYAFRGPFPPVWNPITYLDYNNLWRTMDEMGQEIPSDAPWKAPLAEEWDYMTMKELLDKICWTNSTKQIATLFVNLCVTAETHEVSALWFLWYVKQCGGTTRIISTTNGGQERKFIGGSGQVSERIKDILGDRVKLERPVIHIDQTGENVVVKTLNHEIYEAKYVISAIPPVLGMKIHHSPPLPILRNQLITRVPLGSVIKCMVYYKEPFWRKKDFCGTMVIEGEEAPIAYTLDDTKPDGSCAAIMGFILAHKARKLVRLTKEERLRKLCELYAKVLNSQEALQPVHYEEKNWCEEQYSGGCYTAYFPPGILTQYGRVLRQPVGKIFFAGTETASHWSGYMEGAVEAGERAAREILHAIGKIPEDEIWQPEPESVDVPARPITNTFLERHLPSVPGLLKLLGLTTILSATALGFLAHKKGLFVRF
- measurementDescription: Inhibitory activity against Monoamine oxidase B
pKi: −log10 of the molar value.
Everything with pKi lower than 4 is 0; everything else, including exactly 4, is 1.

Task item: Entry C#CCN(Cc1ccccc1)Cc1cn(Cc2ccccc2)c2ccccc12 : is its pKi no less than 4?
Reply: 0

Task item: Entry Cn1c(CNCc2ccccc2)cc2ccccc21 : is its pKi no less than 4?
Reply: 1

Task item: Entry CC#CCN(C)Cc1cc2ccccc2n1C : is its pKi no less than 4?
Reply: 1

Task item: Entry CC(C)NCc1cn(Cc2ccccc2)c2ccccc12 : is its pKi no less than 4?
Reply: 0

Task item: Entry CCNCc1cn(Cc2ccccc2)c2ccccc12 : is its pKi no less than 4?
Reply: 0

Task item: Entry C#CCN(C)Cc1cc2ccccc2n1C : is its pKi no less than 4?
Reply: 1

Task item: Entry C#CCNCc1cc2cc(O)ccc2n1C : is its pKi no less than 4?
Reply: 1

Task item: Entry CC#CCN(Cc1ccccc1)Cc1cc2ccccc2n1C : is its pKi no less than 4?
Reply: 1

----------
- measurementTarget: Amine oxidase [flavin-containing] B (Rattus norvegicus)
- measurementDescription: Inhibitory activity against Monoamine oxidase B
endpoint: Ki (nM)
Write the value in nM as a bare number.

Task item: Note Ki for the compound shown: C#CCN(C)Cc1cc2cc(OC)ccc2n1C
Reply: 57.5
